These measurements were taken from patent US20240360114A1.

- Tested on: HT-1080 cells
- Test: HT-1080 cell viability assay (ferroptosis induced by RSL3, Cell Titer-Glo)
- Type: cell-based
- Applied conditions: Homo sapiens, HT-1080, 20 h, ferroptosis inducer RSL3, 20 hours, ferroptosis inhibitory activity, Table 2
pEC50: −log10 of the molar value.
Experimental readout: pEC50

Guide cases for pEC50, answers given:
Compound: CC(C)(C)c1ccc(NC2CCC(NCCO)CC2)cc1 (stereo not shown) [Compound 230]
System under test: HT-1080 cells
pEC50: 7.00 to 10.00
//
Compound: NC1CCC(Nc2ccc3c(c2)OCC3)CC1 (stereo not shown) [Compound 166]
System under test: HT-1080 cells
pEC50: 5.00 to 6.00
//
Compound: Cc1c(NC[C@H]2CC[C@H](N)CC2)ccc(N2CC(C)OC(C)C2)c1C (stereo partly shown) [Compound 452]
System under test: HT-1080 cells
pEC50: 7.00 to 10.00
//
Compound: Cc1nc(N2CC(C)OC(C)C2)ccc1NCCCC1CCC(N)CC1 (stereo not shown) [Compound 526]
System under test: HT-1080 cells
pEC50: 7.00 to 10.00
//
Compound: CC1(C)CCC(c2ccc(NCCN)cc2)CC1 [Compound 176]
System under test: HT-1080 cells
pEC50: 6.00 to 7.00

INPUT: Provide one value: measured pEC50 of CC(C)Nc1ccc(N2CCC(C(F)(F)F)CC2)cc1 [Compound 7]
OUTPUT: 7.00 to 10.00

INPUT: Provide one value: measured pEC50 of CC(C)C1CCN(c2ncc(NC[C@H]3CC[C@H](C(N)=O)CC3)cn2)CC1 [Compound 423]
OUTPUT: 7.00 to 10.00
